# METHOD: small-molecule microarray binders of probe aXIP, primary screen, biochemical, NeuroSMM set, 635/667 nm fluorescence (AID 1119);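 note: probe is the protein aXip251-270 applied at 1 µg/mL to compound-printed slides; binding of probe to printed compounds measured as 667 nm fluorescence plus signal to noise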
# ASSAY CONTEXT: higher = more signal, called active from +8 up or from −8 down
VALUE TYPE: composite Z-score
Reply briefly: the number, and no unit.

composite Z-score recorded for this molecule, `COCCOC(=O)N1C(=O)[C@@]2(c3cc(C#CCCO)ccc31)[C@H](C(=O)N1CCN(c3ncccn3)CC1)[C@H]1C(=O)O[C@H](c3ccccc3)[C@H](c3ccccc3)N1[C@@H]2c1ccc(OCCO)cc1` , is -0.265

composite Z-score recorded for this molecule, CC(C)c1ccc(NN2C(C(O)c3ccccc3)C=CC3C(=O)N(c4ccccc4)C(=O)C32)cc1 (centres undefined) , is -0.175

composite Z-score recorded for this molecule, `C=C1C(=O)C=C2CN(C(=O)c3ccccc3)[C@@](Cc3ccc(F)cc3)(C(=O)OC)[C@@H]12` , is 0.114

composite Z-score recorded for this molecule, COc1ccc(C(O)C2C=CC3C(=O)N(C)C(=O)C3N2Nc2ccccc2)cc1 (centres undefined) , is 0.195

###

# System: Lefty1
# METHOD: Lefty1 binders on small-molecule microarrays, primary screen, biochemical, small-molecule microarray, 635/667 nm fluorescence (AID 1139)
# ASSAY CONTEXT: small-molecule microarray binding, fluorescence 635/667; higher = more signal
Use composite z-score to assign classes; range list: small value (below -0.04), mid value (-0.04 to below 0.8), large value (0.8 or more)

[[record]]
compound = "CN1C(=O)C2C=CC(C(O)c3ccc(I)cc3)N(N(c3ccccc3)c3ccccc3)C2C1=O (stereo not given)"
label_value = "small value"


Incoming: Form: Item = `CC(C)N1C(=O)[C@@]2(Cc3ccccc31)c1ccccc1C(=O)N(Cc1ccccc1)[C@H]2c1ccc(CO)cc1` ; Class = ?
Outgoing: mid value

Incoming: Form: Item = `O=C1O[C@@H](c2ccccc2)[C@@H](c2ccccc2)N2[C@@H](c3ccc(OCCO)cc3)[C@]3(C(=O)Nc4ccc(C#CC5=CCCCC5)cc43)[C@@H](C(=O)Nc3nc4ccccc4s3)[C@H]12` ; Class = ?
Outgoing: mid value

Incoming: Form: Item = `O=C1N(Cc2ccccc2)c2ccccc2C[C@@]12N=C(c1ccc(OCCCO)cc1)O[C@H]2c1ccccc1` ; Class = ?
Outgoing: mid value

Incoming: Form: Item = `C=CC[C@]12N=C(c3ccc(OCCCO)cc3)O[C@H]1c1ccccc1N(CCC)C2=O` ; Class = ?
Outgoing: mid value

Incoming: Form: Item = CCCCN1CC=CC23O[C@@H]4/C=C\CCC(C)OC(=O)C4[C@H]2C(=O)N(CCO)[C@@H]3C1=O (stereo not given in full) ; Class = ?
Outgoing: mid value

Incoming: Form: Item = `COc1ccc(C(=O)Nc2ccc(CN3C(=O)[C@@]4(O[C@@H](CC(=O)N(CCO)Cc5ccccc5)[C@H]([Si](C)(C)c5ccc(OC)cc5)[C@H]4C)c4ccccc43)cc2)cc1` ; Class = ?
Outgoing: large value

Incoming: Form: Item = `C=C(COC)/C(=C/C[C@@H](OC(C)=O)c1cccc(OCCO)c1)c1cnc2ccccc2c1` ; Class = ?
Outgoing: large value

Incoming: Form: Item = `COCCOC(=O)N1C(=O)[C@@]2(c3cc(C#CCNC(N)=O)ccc31)[C@H](c1ccccc1OCCO)N1[C@H](c3ccccc3)[C@H](c3ccccc3)OC(=O)[C@H]1[C@@H]2C(=O)N1CCCCCCC1` ; Class = ?
Outgoing: mid value

Incoming: Form: Item = `[N-]=[N+]=Nc1ccccc1C[C@]1(C(N)=O)COC(c2ccc(OCCCO)cc2)=N1` ; Class = ?
Outgoing: small value

Incoming: Form: Item = `COc1ccc(CCNC(=O)[C@@H]2c3ccccc3C(=O)N(C(C)C)[C@H]2c2ccc(CO)cc2)cc1` ; Class = ?
Outgoing: small value

Incoming: Form: Item = `COC(=O)[C@@]1(Cc2ccccc2)[C@H]2c3cc(C(=O)N(C)C)n(Cc4ccc(Cl)c(C(F)(F)F)c4)c3C[C@H]2CN1C(=O)c1ccccc1` ; Class = ?
Outgoing: large value

Incoming: Form: Item = `C=C1C(=O)C=C2CN(C(=O)c3ccccc3)[C@@](Cc3ccc(F)cc3)(C(=O)OC)[C@@H]12` ; Class = ?
Outgoing: small value
